Some compounds, each annotated with its measured GI50.
System: HL-60
Assay: Cytotoxicity against human HL60 cells assessed as reduction in cell growth inhibition after 72 hrs by trypan blue-staining based hemocytometric analysis
Type: functional
Details: HL-60, 72 h

{"Smiles structure": "COc1ccc(-c2cc(C(=O)NCCSSCCNC(=O)c3cc(-c4ccc(OC)c(Br)c4)on3)no2)cc1Br", "Test system": "HL-60", "GI50 [µM]": 13.3}
{"Smiles structure": "CO/N=C(\\Cc1ccc(C)cc1)C(=O)NCCSSCCNC(=O)/C(Cc1ccc(C)cc1)=N/OC", "Test system": "HL-60", "GI50 [µM]": 11.9}
{"Smiles structure": "O=C(NCCSSCCNC(=O)c1cc(-c2ccc(O)cc2)[nH]n1)c1cc(-c2ccc(O)cc2)[nH]n1", "Test system": "HL-60", "GI50 [µM]": 4.11}
{"Smiles structure": "O=C(NCCSSCCNC(=O)/C(Cc1ccc2c(c1)OCO2)=N/O)/C(Cc1ccc2c(c1)OCO2)=N/O", "Test system": "HL-60", "GI50 [µM]": 0.67}
{"Smiles structure": "O=C(NCCSSCCNC(=O)c1cc(-c2ccc(O)c(Br)c2)[nH]n1)c1cc(-c2ccc(O)c(Br)c2)[nH]n1", "Test system": "HL-60", "GI50 [µM]": 6.14}
{"Smiles structure": "O=C(NCCSSCCNC(=O)/C(Cc1ccc(O)c(Br)c1)=N/O)/C(Cc1ccc(O)c(Br)c1)=N/O", "Test system": "HL-60", "GI50 [µM]": 0.29}
{"Smiles structure": "O=C(NCCSSCCNC(=O)/C(Cc1cccc(Cl)c1)=N/O)/C(Cc1cccc(Cl)c1)=N/O", "Test system": "HL-60", "GI50 [µM]": 0.57}
{"Smiles structure": "CO/N=C(\\Cc1cccc(Cl)c1)C(=O)NCCSSCCNC(=O)/C(Cc1cccc(Cl)c1)=N/OC", "Test system": "HL-60", "GI50 [µM]": 6.55}
{"Smiles structure": "CO/N=C(\\Cc1ccc(Cl)cc1Cl)C(=O)NCCSSCCNC(=O)/C(Cc1ccc(Cl)cc1Cl)=N/OC", "Test system": "HL-60", "GI50 [µM]": 8.64}
{"Smiles structure": "COc1cc(C/C(=N\\O)C(=O)NCCSSCCNC(=O)/C(Cc2ccc(O)c(OC)c2)=N/O)ccc1O", "Test system": "HL-60", "GI50 [µM]": 0.28}
{"Smiles structure": "O=C(NCCSSCCNC(=O)/C(Cc1ccc(Cl)cc1Cl)=N/O)/C(Cc1ccc(Cl)cc1Cl)=N/O", "Test system": "HL-60", "GI50 [µM]": 0.87}
{"Smiles structure": "COc1ccc(-c2cc(C(=O)NCCSSCCNC(=O)c3cc(-c4ccc(OC)c(Br)c4)[nH]n3)n[nH]2)cc1Br", "Test system": "HL-60", "GI50 [µM]": 5.52}
{"Smiles structure": "CO/N=C(\\Cc1ccc(OC)cc1)C(=O)NCCSSCCNC(=O)/C(Cc1ccc(OC)cc1)=N/OC", "Test system": "HL-60", "GI50 [µM]": 5.18}
{"Smiles structure": "O=C(NCCSSCCNC(=O)/C(Cc1ccc(O)cc1)=N/O)/C(Cc1ccc(O)cc1)=N/O", "Test system": "HL-60", "GI50 [µM]": 0.62}
